Documented PBM binding z-score across a set of sequences
# Tested on: PPARg:RXRa DBDmut IVT, anti-RXR (DBD mutation: RXRa K156A/R161A, NR concentration 270 nM, RXRa partner concentration 90 nM)
# Procedure Text: PBM binding z-score (relative to random genomic background probes); higher = stronger binding; sequences stand for … in GC…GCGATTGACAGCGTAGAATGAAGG

>  <Ordered Residues>
TCACATAGGTAAACAGGTGAAAGTCCGTAAGTTA

>  <PBM binding z-score>
2.55

$$$$

I have this sequence here, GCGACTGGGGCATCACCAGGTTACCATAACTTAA , and I need its recorded PBM binding z-score.
3.65

Query CCAACTGGGGCAAAGGTTACCATACTCAGTACGA next
6.6

Query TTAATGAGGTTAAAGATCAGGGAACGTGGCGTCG next
4.2

Query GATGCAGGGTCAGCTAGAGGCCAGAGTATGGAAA next
0.505

Query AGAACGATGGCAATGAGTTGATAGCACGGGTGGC next
-0.597

Query TCTCTTAGTTGAAGGGCAACCGACGAGTCCGTTT next
2.62

Query CCAGACAGGTGAGAAGGTACCTCAGCCTCGATTA next
0.836

Query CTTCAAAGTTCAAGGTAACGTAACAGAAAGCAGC next
0.401

Query TCATATAGGTAAATGCTAGGTGAAAGTACGATCT next
3.93

Query GCGACTGGGTCAAAGCAGGTTACCATAAGGTTGG next
5.8

Query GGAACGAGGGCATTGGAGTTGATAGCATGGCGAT next
3.13

Query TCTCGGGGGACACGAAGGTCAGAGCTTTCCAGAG next
2.39

Query CCTAGTTGATCAGGAGGTCACACACCGGATATGA next
0.771

Query CGAACTAGGTCAGAACAGGATAGTGAAGGATGAT next
7.17

---

# Tested on: THRa:RXRa (NR concentration 90 nM, RXRa partner concentration 90 nM)
# Procedure Text: PBM binding z-score (relative to random genomic background probes); higher = stronger binding; sequences stand for … in GC…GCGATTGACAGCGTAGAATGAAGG
Property Name: PBM binding z-score
Write the value as a bare number.

>  <Ordered Residues>
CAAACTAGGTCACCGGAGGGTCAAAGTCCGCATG

>  <PBM binding z-score>
4.24

$$$$

I have this sequence here, AGTCAGAGTTCAGGACGAGGTAACGTAAAGCACG , and I need its recorded PBM binding z-score.
3.79

Query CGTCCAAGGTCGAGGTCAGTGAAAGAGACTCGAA next
3.93

---

# System: LXRb homodimer (NR concentration 270 nM)
# Procedure Text: PBM binding z-score (relative to random genomic background probes); higher = stronger binding; sequences stand for … in GC…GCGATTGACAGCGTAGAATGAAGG
Binary call on PBM binding z-score: class 1 from 0.1 upward, class 0 beneath that.

For orientation, consider the following solved cases.
>  <Ordered Residues>
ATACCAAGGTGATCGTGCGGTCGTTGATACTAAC

>  <Class>
class 0

$$$$
>  <Ordered Residues>
GCTTACGGGTCAAAGGTTCTAGCATGAATAGAAT

>  <Class>
class 0

$$$$
>  <Ordered Residues>
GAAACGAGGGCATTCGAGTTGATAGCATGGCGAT

>  <Class>
class 0

$$$$

Has ACAGACAGGTGAGTGAAGGTAACGCAGCTGGACG a recorded PBM binding z-score greater than or equal to 0.1?
class 0

Query AGAGTGAGGTTATACGTAGATCAGGGAAGAAAGT next
class 1

Query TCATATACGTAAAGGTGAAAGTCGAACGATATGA next
class 1

Query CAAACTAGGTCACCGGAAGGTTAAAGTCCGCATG next
class 1

Query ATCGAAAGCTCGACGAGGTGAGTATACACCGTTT next
class 0

Query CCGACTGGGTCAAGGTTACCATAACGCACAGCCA next
class 0

Query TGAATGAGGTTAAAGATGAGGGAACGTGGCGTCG next
class 1

Query AGTCAAAGTTCAGGACGAGGTAACGGAAAGCACG next
class 1

Query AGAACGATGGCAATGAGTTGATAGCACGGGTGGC next
class 0

Query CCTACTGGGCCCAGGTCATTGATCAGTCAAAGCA next
class 0

Query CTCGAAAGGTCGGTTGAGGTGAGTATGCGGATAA next
class 0

Query GATACTGGGTCAAGGCCAGAGTACGCGTATTGAT next
class 0

Query TGAATGAGGTTAAAGATCAGGCAACGTGGCGTCG next
class 1

Query TCTATTAGTTGTTTAGGGCAACCGAAACAGCGGA next
class 1

Query GATACAGGGTCAAGTCCAGAGTACGCGTATTGAT next
class 1

Query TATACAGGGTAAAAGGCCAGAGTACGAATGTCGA next
class 1

Query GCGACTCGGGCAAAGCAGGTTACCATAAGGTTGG next
class 0

---

# System: RARa:RXR (NR concentration 270 nM, RXRa partner concentration 90 nM)
# Procedure Text: PBM binding z-score (relative to random genomic background probes); higher = stronger binding; sequences stand for … in GC…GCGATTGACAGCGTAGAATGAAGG
Documented PBM binding z-score across a set of sequences
Write the value as a bare number.

I have this sequence here, TCATATAGGTAAAAGGTGTAAGTCGGTGTGGTAA , and I need its recorded PBM binding z-score.
0.719

---

# Test system: FXR:RXRa (NR concentration 270 nM, RXRa partner concentration 90 nM)
# Procedure Text: PBM binding z-score (relative to random genomic background probes); higher = stronger binding; sequences stand for … in GC…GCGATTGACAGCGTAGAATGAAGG
Property Name: PBM binding z-score
Write the value as a bare number.

>  <Ordered Residues>
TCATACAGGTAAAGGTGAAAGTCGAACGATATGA

>  <PBM binding z-score>
1.17

$$$$
>  <Ordered Residues>
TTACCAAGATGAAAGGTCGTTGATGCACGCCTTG

>  <PBM binding z-score>
1.32

$$$$
>  <Ordered Residues>
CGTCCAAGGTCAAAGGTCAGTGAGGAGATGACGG

>  <PBM binding z-score>
8.06

$$$$

Moving on to another sequence below.
I have this sequence here, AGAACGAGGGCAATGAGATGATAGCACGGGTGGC , and I need its recorded PBM binding z-score.
0.277

---

# Test system: PPARg:RXRa IVT, anti-PPARg (NR concentration 270 nM, RXRa partner concentration 90 nM)
# Procedure Text: PBM binding z-score (relative to random genomic background probes); higher = stronger binding; sequences stand for … in GC…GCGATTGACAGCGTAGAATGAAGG
Binary call on PBM binding z-score: Condition met from 0.9 upward, Condition not met beneath that.

For orientation, consider the following solved cases.
>  <Ordered Residues>
TGAATGAGTTTAAAGATCAGGGAACGTGGCGTCG

>  <Class>
Condition not met

$$$$
>  <Ordered Residues>
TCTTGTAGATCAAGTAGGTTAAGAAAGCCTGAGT

>  <Class>
Condition met

$$$$
>  <Ordered Residues>
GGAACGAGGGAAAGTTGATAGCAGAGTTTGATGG

>  <Class>
Condition not met

$$$$

Has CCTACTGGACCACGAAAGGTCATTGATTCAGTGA a recorded PBM binding z-score greater than or equal to 0.9?
Condition met

Query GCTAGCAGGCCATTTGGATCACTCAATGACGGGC next
Condition not met

---

# System: VDR homodimer (NR concentration 270 nM)
# Procedure Text: PBM binding z-score (relative to random genomic background probes); higher = stronger binding; sequences stand for … in GC…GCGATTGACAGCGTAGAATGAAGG
Documented PBM binding z-score across a set of sequences
Write the value as a bare number.

I have this sequence here, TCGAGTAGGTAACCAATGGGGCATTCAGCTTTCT , and I need its recorded PBM binding z-score.
-0.729

Query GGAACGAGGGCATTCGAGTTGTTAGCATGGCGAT next
2.43

Query AGAATGAGGTTAAGATCAGGGAAACAGAATACAT next
0.379

Query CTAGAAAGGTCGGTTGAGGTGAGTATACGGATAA next
1.05

Query CCTGCTAGGTCATGGACAGCTAATCTACAGTATG next
0.0193

Query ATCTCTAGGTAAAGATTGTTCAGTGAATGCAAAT next
0.0196

Query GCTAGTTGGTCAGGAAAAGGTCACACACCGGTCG next
1.68

Query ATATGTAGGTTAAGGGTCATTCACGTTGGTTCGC next
4.09

Query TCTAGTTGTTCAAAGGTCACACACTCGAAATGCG next
2.78

Query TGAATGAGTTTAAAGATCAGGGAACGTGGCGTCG next
2.88

Query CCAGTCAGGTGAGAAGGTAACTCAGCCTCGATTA next
-0.271

Query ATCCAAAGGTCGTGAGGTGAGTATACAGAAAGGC next
1.63
